The entries below are paired with their reported IC50.
# tested.target: D816V Kit (Homo sapiens, UniProt P10721, D816V)
# Sequence (P10721 26-976 D816V): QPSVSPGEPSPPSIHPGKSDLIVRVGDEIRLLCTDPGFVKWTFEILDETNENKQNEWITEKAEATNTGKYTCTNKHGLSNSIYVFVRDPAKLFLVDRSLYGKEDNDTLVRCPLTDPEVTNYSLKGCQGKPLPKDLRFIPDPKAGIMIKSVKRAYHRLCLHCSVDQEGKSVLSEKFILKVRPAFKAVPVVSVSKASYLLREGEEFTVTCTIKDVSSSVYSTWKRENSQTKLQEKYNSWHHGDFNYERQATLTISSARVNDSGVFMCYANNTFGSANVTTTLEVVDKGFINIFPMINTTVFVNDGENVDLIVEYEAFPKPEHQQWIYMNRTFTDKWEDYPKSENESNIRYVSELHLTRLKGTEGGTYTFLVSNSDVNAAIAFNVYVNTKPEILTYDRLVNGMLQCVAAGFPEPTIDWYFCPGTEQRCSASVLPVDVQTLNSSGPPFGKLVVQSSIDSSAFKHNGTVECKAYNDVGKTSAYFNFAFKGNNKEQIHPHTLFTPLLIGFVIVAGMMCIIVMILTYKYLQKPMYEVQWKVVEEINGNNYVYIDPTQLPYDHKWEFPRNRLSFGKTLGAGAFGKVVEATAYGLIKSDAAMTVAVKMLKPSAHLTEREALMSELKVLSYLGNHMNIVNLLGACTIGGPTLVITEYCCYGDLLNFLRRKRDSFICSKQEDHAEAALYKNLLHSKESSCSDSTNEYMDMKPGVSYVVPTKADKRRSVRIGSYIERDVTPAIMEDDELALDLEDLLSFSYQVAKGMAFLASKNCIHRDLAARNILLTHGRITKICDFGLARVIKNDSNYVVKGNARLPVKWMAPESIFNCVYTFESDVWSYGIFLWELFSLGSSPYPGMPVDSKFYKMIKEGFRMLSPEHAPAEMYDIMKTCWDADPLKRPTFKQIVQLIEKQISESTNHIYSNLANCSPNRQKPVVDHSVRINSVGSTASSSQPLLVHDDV
# protocol.summary: Kit D816V assay at Km (Caliper electrophoretic mobility shift)
# cond: 15 uM ATP, 25 C, 90 minutes

Ask | I would be grateful if you could share the reported IC50 for N#Cc1ccc(NC(=O)N2CCN(c3ncnc(Nc4ccc(N5CCOCC5)cc4)n3)CC2)cc1 .
Reply | > 100 nM

Ask | Then this compound: CN1CCC[C@H]1COc1ccc(Nc2ncnc(N3CCN(c4ncc(Cc5ccccc5)cn4)CC3)n2)cc1
Reply | < 1 nM

====

The entries below are paired with their reported pIC50.
# tested.target: D816V Kit (Homo sapiens, UniProt P10721, D816V)
# protocol.summary: Kit D816V assay at Km (Caliper electrophoretic mobility shift)
# cond: 15 uM ATP, 25 C, 90 minutes
pIC50: −log10 of the molar value.

                                   molecule  recorded_value
0  OC[C@@H]1CCCN1c1ccc(Nc2ncnc(N3CCN(c4ncc(Cc5ccccc5)cn4)CC3)n2)cc1    8.00 to 9.00
1  CP(C)(=O)c1ccc(Nc2ncnc(N3CCN(c4ncc(Cc5ccccc5)cn4)CC3)n2)cc1          > 9.00

Here's the next entry for you.
Ask | I would be grateful if you could share the reported pIC50 for c1ccc(Cc2cnc(N3CCN(c4ncnc(Nc5cccc(C6CCCNC6)c5)n4)CC3)nc2)cc1 (stereo not drawn) .
Reply | > 9.00

====

# tested.target: wild type Kit (Homo sapiens)
# Sequence (P10721 26-976): as the sequence (P10721 26-976 D816V) above, with V791D counted along it
pIC50: −log10 of the molar value.
The entries below are paired with their reported pIC50.

Solved cases below.
>>> print(df.to_string())
                                   compound  recorded_value
0  OC1(Cn2cc(Nc3ncnc(N4CCN(c5ncc(Cc6ccccc6)cn5)CC4)n3)cn2)CCNCC1    7.00 to 7.96
1  Fc1ccccc1Cc1cnc(N2CCN(c3ncnc(Nc4ccc5c(c4)CNCC5)n3)CC2)nc1          > 8.00
2  c1ccc(Cc2cnc(N3CCN(c4ncnc(Nc5cccc(O[C@@H]6CCNC6)c5)n4)CC3)nc2)cc1    7.00 to 7.96
3  c1ccc(Cc2cnc(N3CCN(c4ncnc(Nc5cnn(CC6CCOCC6)c5)n4)CC3)nc2)cc1          > 8.00
4  OCCC1CN(c2ncnc(Nc3ccc4c(c3)CNCC4)n2)CCN1c1ncc(Cc2ccccc2)cn1 (stereo not shown)          > 8.00

Ask | Param readout = pIC50; param system = wild type Kit (Homo sapiens); param query = CN(C)CCCn1cc(Nc2ncnc(N3CCN(c4ncc(Cc5ccccc5)cn4)CC3)n2)cn1 ; response: value
Reply | 7.00 to 7.96

Ask | Then this compound: CN1CCC(Cn2cc(Nc3ncnc(N4CCN(c5ncc(Cc6ccccc6)cn5)CC4)n3)cn2)CC1
Reply | > 8.00

Ask | Then this compound: c1ccc(Oc2cnc(N3CCN(c4ncnc(Nc5ccc6c(c5)CNCC6)n4)CC3)nc2)cc1
Reply | > 8.00

Ask | Then this compound: CCNc1cccc(Nc2ncnc(N3CCN(c4ncc(Cc5ccccc5)cn4)CC3)n2)c1
Reply | 7.00 to 7.96

====

The entries below are paired with their reported IC50.
# tested.target: Kit D816V (HMC1.2 cells, Kit V560G and D816V) (Homo sapiens, UniProt P10721, D816V/V560G)
# Construct: endogenous in cells; host or cells: HMC1.2 cells
# Sequence (P10721 26-976 V560G/D816V): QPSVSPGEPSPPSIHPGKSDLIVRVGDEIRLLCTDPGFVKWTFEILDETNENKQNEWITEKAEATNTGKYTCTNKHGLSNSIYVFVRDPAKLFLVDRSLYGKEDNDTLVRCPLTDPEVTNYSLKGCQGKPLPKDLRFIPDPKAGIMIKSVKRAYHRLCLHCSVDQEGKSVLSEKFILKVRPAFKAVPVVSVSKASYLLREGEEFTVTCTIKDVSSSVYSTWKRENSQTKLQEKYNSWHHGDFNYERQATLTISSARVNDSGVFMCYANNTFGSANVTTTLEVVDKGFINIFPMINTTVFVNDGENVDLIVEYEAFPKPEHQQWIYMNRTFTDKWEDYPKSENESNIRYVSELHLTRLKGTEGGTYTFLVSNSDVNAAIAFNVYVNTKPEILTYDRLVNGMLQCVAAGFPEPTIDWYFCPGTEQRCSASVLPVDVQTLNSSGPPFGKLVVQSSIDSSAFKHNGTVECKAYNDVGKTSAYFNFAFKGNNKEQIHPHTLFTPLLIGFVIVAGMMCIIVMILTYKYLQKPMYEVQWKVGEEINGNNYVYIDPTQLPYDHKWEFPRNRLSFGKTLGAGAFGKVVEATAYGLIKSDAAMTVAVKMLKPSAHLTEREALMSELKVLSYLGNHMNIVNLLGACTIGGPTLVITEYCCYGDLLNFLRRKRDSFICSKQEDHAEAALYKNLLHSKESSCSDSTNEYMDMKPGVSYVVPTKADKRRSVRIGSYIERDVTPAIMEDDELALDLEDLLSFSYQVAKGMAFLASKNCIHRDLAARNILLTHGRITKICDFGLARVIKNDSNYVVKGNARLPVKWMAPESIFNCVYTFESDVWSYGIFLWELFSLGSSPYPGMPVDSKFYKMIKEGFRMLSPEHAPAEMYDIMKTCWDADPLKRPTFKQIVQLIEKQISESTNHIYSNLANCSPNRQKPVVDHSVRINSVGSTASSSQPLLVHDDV
# protocol.summary: HMC1.2 autophosphorylation assay (AlphaLISA, phospho-Y719 c-Kit)
# Format: cell-based
# cond: Kit autophosphorylation at tyrosine 719, 90 minutes, read-out: Cellular Activity

                                   molecule  readout_type  recorded_value
0  Cc1nn(C[C@@H]2CNCCO2)cc1Nc1ncnc(N2CCN(c3ncc(Cc4ccccc4)cn3)CC2)n1 [Compound 184]          IC50    10 to 100 nM
1  c1nc(Nc2cnn(CC3CNCCO3)c2)nc(N2CCN(c3ncc(C4CC4)cn3)CC2)n1 (stereo not shown) [Compound 19]          IC50      > 10000 nM
2  C[C@@H]1CN(c2ncnc(Nc3ccc(P(C)(C)=O)cc3)n2)CCN1c1ncc(Cc2ccccc2)cn1 [Compound 128]          IC50  100 to 1000 nM

Ask | I would be grateful if you could share the reported IC50 for CC(C)(O)c1ccc(Nc2ncnc(N3CCN(c4ncc([C@@](C)(N)c5ccc(F)cc5)cn4)CC3)n2)cc1 [Compound 193] .
Reply | < 10 nM

====

# tested.target: Kit D816V (HMC1.2 cells, Kit V560G and D816V) (Homo sapiens, UniProt P10721, D816V/V560G)
# Construct: endogenous in cells
# protocol.summary: HMC1.2 autophosphorylation assay (AlphaLISA, phospho-Y719 c-Kit)
# cond: Kit autophosphorylation at tyrosine 719, 90 minutes, read-out: Cellular Activity
readout.type: IC50

Solved cases below.
In [3]: df
Out[3]:
                                   molecule  readout_type  recorded_value
0  OCCN1CCc2ccc(Nc3ncnc(N4CCN(c5ncc(Cc6ccccc6)cn5)CC4)n3)cc2C1          IC50    10 to 100 nM
1  Nc1cncc(Nc2ncnc(N3CCN(c4ncc(Cc5ccccc5)cn4)CC3)n2)c1          IC50    10 to 100 nM
2  Cc1c(Nc2ncnc(N3CCN(c4ncc(Sc5ccccc5F)cn4)CC3)n2)cnn1CC(C)(C)O          IC50    10 to 100 nM
3  c1ccc(Cc2cnc(N3CCN(c4ncnc(Nc5cnn(CC6CCOC6)c5)n4)CC3)nc2)cc1 (centres unmarked)          IC50    10 to 100 nM

Ask | I would be grateful if you could share the reported IC50 for CNCCCn1cc(Nc2ncnc(N3CCN(c4ncc(Cc5ccccc5)cn4)CC3)n2)cn1 .
Reply | 10 to 100 nM

Ask | Then this molecule: c1ccc(Cc2cnc(N3CCN(c4ncnc(Nc5cnn(C[C@H]6COCCO6)c5)n4)CC3)nc2)cc1
Reply | 10 to 100 nM

====

The entries below are paired with their reported IC50.
# tested.target: Kit D816V (HMC1.2 cells, Kit V560G and D816V) (Homo sapiens, UniProt P10721, D816V/V560G)
# Construct: endogenous in cells
# protocol.summary: HMC1.2 autophosphorylation assay (AlphaLISA, phospho-Y719 c-Kit)
# cond: Kit autophosphorylation at tyrosine 719, 90 minutes, read-out: Cellular Activity

Solved cases below.
                                   compound  readout_type  recorded_value
0  Fc1ccc(Oc2cnc(N3CCN(c4ncnc(Nc5cnn(C[C@@H]6CNCCO6)c5)n4)CC3)nc2)cc1          IC50  100 to 1000 nM
1  Fc1cccc(Cc2cnc(N3CCN(c4ncnc(Nc5ccc6c(c5)CNCC6)n4)CC3)nc2)c1          IC50    10 to 100 nM

Ask | I would be grateful if you could share the reported IC50 for O=C(c1ccccc1)c1cnc(N2CCN(c3ncnc(Nc4cnn(CC5CNCCO5)c4)n3)CC2)nc1 (stereo not drawn) .
Reply | 100 to 1000 nM

====

The entries below are paired with their reported IC50.
# tested.target: Kit D816V (HMC1.2 cells, Kit V560G and D816V) (Homo sapiens, UniProt P10721, D816V/V560G)
# Construct: endogenous in cells
# protocol.summary: HMC1.2 autophosphorylation assay (AlphaLISA, phospho-Y719 c-Kit)
# cond: Kit autophosphorylation at tyrosine 719, 90 minutes, read-out: Cellular Activity

Solved cases below.
>>> df
                                   compound  readout_type  recorded_value
0  O=C1CCc2ccc(Nc3ncnc(N4CCN(c5ncc(Cc6ccccc6)cn5)C(CCO)C4)n3)cc2N1 (stereo not drawn)          IC50    10 to 100 nM
1  CN1CCN(c2ccc(Nc3ncnc(N4CCN(c5ncc(Cc6ccccc6)cn5)CC4)n3)cc2)CC1          IC50    10 to 100 nM
2  C[C@@H](O)CN1CCc2ccc(Nc3ncnc(N4CCN(c5ncc(Cc6ccccc6)cn5)CC4)n3)cc2C1          IC50    10 to 100 nM
3  C[C@@H]1CN(c2ncnc(Nc3ccc(N4CCOCC4)cc3)n2)CCN1c1ncc(Cc2ccccc2)cn1          IC50  100 to 1000 nM
4  c1ccc(Cc2cnc(N3CCN(c4ncnc(Nc5ccc6c(c5)CNCC6)n4)CC3)nc2)nc1          IC50    10 to 100 nM

Ask | Param readout = IC50; param system = Kit D816V (HMC1.2 cells, Kit V560G and D816V) (Homo sapiens, UniProt P10721, D816V/V560G); param query = CN1CCN(c2ccc(Nc3ncnc(N4CCN(c5ncc(Cc6ccccc6)cn5)CC4)n3)cc2F)CC1 ; response: value
Reply | 10 to 100 nM

Ask | Then this compound: c1ccc(Cc2cnc(N3CCN(c4ncnc(Nc5ccc6c(c5)CNCC6)n4)CC3)nc2)cc1
Reply | 10 to 100 nM

Ask | Then this compound: c1ccc(Cc2cnc(N3CCN(c4ncnc(Nc5cccc(O[C@@H]6CCNC6)c5)n4)CC3)nc2)cc1
Reply | 100 to 1000 nM

Ask | Then this compound: CC(O)c1cccc(Nc2ncnc(N3CCN(c4ncc(Cc5ccccc5)cn4)CC3)n2)c1 (stereo not drawn)
Reply | 100 to 1000 nM

Ask | Then this compound: c1ccc(Cc2cnc(N3CCN(c4ncnc(Nc5cnn(C[C@H]6CNCCO6)c5)n4)CC3)nc2)cc1
Reply | < 10 nM

Ask | Then this compound: Fc1cccc(F)c1Cc1cnc(N2CCN(c3ncnc(Nc4ccc5c(c4)CNCC5)n3)CC2)nc1
Reply | 100 to 1000 nM

Ask | Then this compound: Cc1cc(N2CCNCC2)ccc1Nc1ncnc(N2CCN(c3ncc(Cc4ccccc4)c(N)n3)CC2)n1
Reply | 100 to 1000 nM
